# System: MT-2 cells
# Measurement Description: Cytotoxicity in MT-2 cells
# Format: cell-based, Human
# Experimental Setup: read-out: MT-2 Cells CC50 (μM ± SD); MT-2 cells, XTT, 4 days
Property: CC50

# molecule Cc1nc(C(NC(=O)C(=O)Nc2ccc(Cl)cc2)C2CCCCN2)sc1CCO.O=CO (stereo not shown) [compound 30] ; its CC50 = > 62 µM
